System Under Test: T1, activated human alfa-2-macroglobulin (α2M_MeNH2) (human, UniProt P01023 24-1474)
T1 construct: mature
T1 sequence (looked up): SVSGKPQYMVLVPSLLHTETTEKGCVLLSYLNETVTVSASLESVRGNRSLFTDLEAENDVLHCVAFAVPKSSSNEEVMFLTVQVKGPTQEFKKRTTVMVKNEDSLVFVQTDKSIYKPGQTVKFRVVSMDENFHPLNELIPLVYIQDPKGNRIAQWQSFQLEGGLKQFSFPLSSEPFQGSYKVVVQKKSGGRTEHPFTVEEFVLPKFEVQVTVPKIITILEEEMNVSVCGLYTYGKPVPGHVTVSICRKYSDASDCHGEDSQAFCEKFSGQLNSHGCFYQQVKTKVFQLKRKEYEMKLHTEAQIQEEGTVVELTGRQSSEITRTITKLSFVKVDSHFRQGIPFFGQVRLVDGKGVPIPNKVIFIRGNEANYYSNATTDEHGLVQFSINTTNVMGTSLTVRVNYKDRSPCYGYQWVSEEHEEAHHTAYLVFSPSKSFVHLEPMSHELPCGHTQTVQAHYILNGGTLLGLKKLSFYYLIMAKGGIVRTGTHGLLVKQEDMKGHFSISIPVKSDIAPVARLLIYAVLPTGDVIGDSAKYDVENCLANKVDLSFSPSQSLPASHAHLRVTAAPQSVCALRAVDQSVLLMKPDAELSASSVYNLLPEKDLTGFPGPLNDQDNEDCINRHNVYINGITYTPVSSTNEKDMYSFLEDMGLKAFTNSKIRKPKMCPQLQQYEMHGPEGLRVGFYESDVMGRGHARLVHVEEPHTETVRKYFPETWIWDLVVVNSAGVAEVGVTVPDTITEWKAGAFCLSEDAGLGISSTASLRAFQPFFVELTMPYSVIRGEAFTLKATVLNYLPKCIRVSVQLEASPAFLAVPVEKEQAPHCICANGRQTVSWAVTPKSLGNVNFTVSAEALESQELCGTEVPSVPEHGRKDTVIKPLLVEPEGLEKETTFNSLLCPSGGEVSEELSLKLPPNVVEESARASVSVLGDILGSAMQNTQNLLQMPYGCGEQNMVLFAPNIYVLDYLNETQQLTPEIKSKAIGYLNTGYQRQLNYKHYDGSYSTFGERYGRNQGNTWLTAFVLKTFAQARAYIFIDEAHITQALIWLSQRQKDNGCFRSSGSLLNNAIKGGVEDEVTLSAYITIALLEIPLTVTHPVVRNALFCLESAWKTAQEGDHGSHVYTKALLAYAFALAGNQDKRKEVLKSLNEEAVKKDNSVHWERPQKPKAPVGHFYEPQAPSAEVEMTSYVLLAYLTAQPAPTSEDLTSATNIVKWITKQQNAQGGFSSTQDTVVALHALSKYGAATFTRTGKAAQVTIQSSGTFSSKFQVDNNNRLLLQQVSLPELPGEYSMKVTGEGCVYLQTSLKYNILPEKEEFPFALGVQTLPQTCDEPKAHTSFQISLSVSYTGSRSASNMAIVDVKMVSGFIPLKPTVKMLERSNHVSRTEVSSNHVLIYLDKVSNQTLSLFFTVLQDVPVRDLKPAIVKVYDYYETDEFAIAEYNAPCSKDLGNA
Run Description: competition ELISA, α2M* coated, DIIIE1PRSbiot as labelled ligand
Below, each entry is listed with its recorded fold increase of IC50 against wild-type DIIIE1PRS.

Study these solved cases before continuing.
>  <Binder>
DIIIE1PRS alanine mutant, variant R350 (other, also called Arg350 to Ala) MDKLTLKGMSYVMCTGSFKLEKEVAETQHGTVLVQVKYEGTDAPCKIPFSTQDEKGVTQNGALITANPIVTDKEKPVNIETEPPFGESYIVVGAGEKALKLSWFKKGSSIGVDHHHHHH

>  <Measured>
≥ 2 fold

$$$$
>  <Binder>
DIIIE1PRS alanine mutant, variant E362 (other) MDKLTLKGMSYVMCTGSFKLEKEVAETQHGTVLVQVKYEGTDAPCKIPFSTQDEKGVTQNGRLITANPIVTDKAKPVNIETEPPFGESYIVVGAGEKALKLSWFKKGSSIGVDHHHHHH

>  <Measured>
> 10 fold

$$$$
>  <Binder>
DIIIE1PRS alanine mutant, variant N366 (other, also called Asn366 to Ala) MDKLTLKGMSYVMCTGSFKLEKEVAETQHGTVLVQVKYEGTDAPCKIPFSTQDEKGVTQNGRLITANPIVTDKEKPVAIETEPPFGESYIVVGAGEKALKLSWFKKGSSIGVDHHHHHH

>  <Measured>
≥ 2 fold

$$$$

Input: Given the binder DIIIE1PRS alanine mutant, variant E375 (other, also called Glu375 to Ala) MDKLTLKGMSYVMCTGSFKLEKEVAETQHGTVLVQVKYEGTDAPCKIPFSTQDEKGVTQNGRLITANPIVTDKEKPVNIETEPPFGASYIVVGAGEKALKLSWFKKGSSIGVDHHHHHH , what is its reported fold increase of IC50 against wild-type DIIIE1PRS?
Output: ≥ 2 fold

Numbers sourced from patent US20170152290A1.
